- test: Measurement of logP values by HPLC on reversed phase columns (EEC directive 79/831 Annex V.A8)
- Assay type: physicochemical
- condition-parameters: pH 2.7, 0.1% formic acid in water / acetonitrile gradient 10% to 95%
Kindly apply the following: condition met if logp is less than 4, condition not met in every other case.

*Q* Regarding `Cc1cccc(C(=NOCc2cccc(NC(=O)CC(C)C)n2)c2nnnn2C)c1F` , kindly confirm whether its logp is beneath 4.
*A* condition met

*Q* Regarding CCCCCC(=O)Nc1cccc(CON=C(c2cc(C)ccc2F)c2nnnn2C)n1 [Example 29] , kindly confirm whether its logp is beneath 4.
*A* condition met

*Q* Regarding `Cc1ccc(C(=NOCc2cccc(NC(=O)CC(C)C)n2)c2nnnn2C)c(F)c1` , kindly confirm whether its logp is beneath 4.
*A* condition met

*Q* Regarding CCCCCOC(=O)Nc1cccc(CON=C(c2ccc(C)cc2Cl)c2nnnn2C)n1 [Example 91] , kindly confirm whether its logp is beneath 4.
*A* condition not met

*Q* Regarding `Cc1cc(C(=NOCc2cccc(NC(=O)CCOc3ccccc3)n2)c2nnnn2C)ccc1F` , kindly confirm whether its logp is beneath 4.
*A* condition met

*Q* Regarding `CC#CCOC(=O)Nc1cccc(CON=C(c2ccc(F)c(C)c2)c2nnnn2C)n1` , kindly confirm whether its logp is beneath 4.
*A* condition met

*Q* Regarding CCCCCC(=O)Nc1cccc(CON=C(c2ccc(C)cc2Cl)c2nnnn2C)n1 (single isomer, unassigned) , kindly confirm whether its logp is beneath 4.
*A* condition not met

*Q* Regarding `CCCCCC(=O)Nc1cccc(CON=C(c2ccc(C(F)(F)F)c(Cl)c2)c2nnnn2C)n1` , kindly confirm whether its logp is beneath 4.
*A* condition not met

*Q* Regarding `Cc1nc(N)cc(CON=C(c2ccc(F)c(Oc3ccccc3)c2)c2nnnn2C)n1` , kindly confirm whether its logp is beneath 4.
*A* condition met

*Q* Regarding CCCCCOC(=O)Nc1cccc(CON=C(c2ccc(C(F)(F)F)cc2F)c2nnnn2C)n1 (single isomer, unassigned) [Example 24] , kindly confirm whether its logp is beneath 4.
*A* condition not met

*Q* Regarding `Cc1cc(OC(F)(F)F)ccc1C(=NOCc1cccc(NC(=O)CC(C)C)n1)c1nnnn1C` , kindly confirm whether its logp is beneath 4.
*A* condition not met

*Q* Regarding CCCCCC(=O)Nc1cccc(CON=C(c2cc(C)ccc2F)c2nnnn2C)n1 [Example 42] , kindly confirm whether its logp is beneath 4.
*A* condition met

*Q* Regarding `Cn1nnnc1C(=NOCc1csc(N)n1)c1cc(F)cc(C(F)(F)F)c1` , kindly confirm whether its logp is beneath 4.
*A* condition met

*Q* Regarding CCCCCOC(=O)Nc1cccc(CON=C(c2ccc(C(F)(F)F)cc2F)c2nnnn2C)n1 (single isomer, unassigned) [Example 23] , kindly confirm whether its logp is beneath 4.
*A* condition not met

*Q* Regarding CCCCCOC(=O)Nc1cccc(CON=C(c2cc(C)ccc2Cl)c2nnnn2C)n1 [Example 83] , kindly confirm whether its logp is beneath 4.
*A* condition not met

*Q* Regarding `CCCCCC(=O)Nc1cccc(CON=C(c2cc(C(F)(F)F)ccc2C)c2nnnn2C)n1` , kindly confirm whether its logp is beneath 4.
*A* condition not met

*Q* Regarding CCCCCOC(=O)Nc1ccnc(CON=C(c2ccc(C)c(C(F)(F)F)c2)c2nnnn2C)n1 [Example 52] , kindly confirm whether its logp is beneath 4.
*A* condition not met

*Q* Regarding `CCCCCOC(=O)Nc1cccc(CON=C(c2cc(C)cc(C)c2)c2nnnn2C)n1` , kindly confirm whether its logp is beneath 4.
*A* condition not met

*Q* Regarding CC(C)C(=O)Nc1cccc(CON=C(c2ccc(C(F)(F)F)cc2F)c2nnnn2C)n1 (single isomer, unassigned) , kindly confirm whether its logp is beneath 4.
*A* condition met

*Q* Regarding CCCCCOC(=O)Nc1cccc(CON=C(c2ccc(C(F)(F)F)c(Cl)c2)c2nnnn2C)n1 [Example 86] , kindly confirm whether its logp is beneath 4.
*A* condition not met

*Q* Regarding CCCCCOC(=O)Nc1cccc(CON=C(c2ccc(OC(F)(F)F)cc2C)c2nnnn2C)n1 (single isomer, unassigned) [Example 97] , kindly confirm whether its logp is beneath 4.
*A* condition not met

*Q* Regarding `CCCCCOC(=O)Nc1cccc(CON=C(c2cccc(C(F)(F)F)c2C)c2nnnn2C)n1` , kindly confirm whether its logp is beneath 4.
*A* condition not met

*Q* Regarding CCCCCOC(=O)Nc1cccc(CON=C(c2ccc(OC(F)(F)F)cc2C)c2nnnn2C)n1 (single isomer, unassigned) [Example 96] , kindly confirm whether its logp is beneath 4.
*A* condition not met

*Q* Regarding `Cc1cc(C)cc(C(=NOCc2cccc(N)n2)c2nnnn2C)c1` , kindly confirm whether its logp is beneath 4.
*A* condition met

*Q* Regarding Cc1ccc(C(=NOCc2cccc(NC(=O)CC(C)C)n2)c2nnnn2C)c(Cl)c1 [Example 46] , kindly confirm whether its logp is beneath 4.
*A* condition met

*Q* Regarding CCCCCC(=O)Nc1cccc(CON=C(c2ccc(C)c(F)c2)c2nnnn2C)n1 (single isomer, unassigned) [Example 114] , kindly confirm whether its logp is beneath 4.
*A* condition not met

====

Give chromatographic logP for every item shown.
- test: Measurement of logP values by HPLC on reversed phase columns (EEC directive 79/831 Annex V.A8)
- Assay type: physicochemical
- condition-parameters: reversed phase HPLC column, pH 2.7, 0.1% formic acid in water / acetonitrile gradient 10% to 95%

*Q* Fill in: chromatographic logP of `Cc1ccc(C(=NOCc2nccc(N)n2)c2nnnn2C)cc1C(F)(F)F` is ___
*A* 1.7

*Q* Fill in: chromatographic logP of `CCCCOC(=O)Nc1ccnc(CON=C(c2ccc(C)c(C(F)(F)F)c2)c2nnnn2C)n1` is ___
*A* 4.24

*Q* Fill in: chromatographic logP of `CCCCCOC(=O)Nc1nc(CON=C(c2ccc(C)c(C(F)(F)F)c2)c2nnnn2C)cs1` is ___
*A* 4.73

*Q* Fill in: chromatographic logP of `CCCCCC(=O)Nc1cccc(CON=C(c2cccc(C(F)(F)F)c2F)c2nnnn2C)n1` is ___
*A* 4.16

====

- test: Measurement of logP values by HPLC on reversed phase columns (EEC directive 79/831 Annex V.A8)
- Format: physicochemical
- condition-parameters: reversed phase HPLC column, pH 2.7, 0.1% formic acid in water / acetonitrile gradient 10% to 95%, read-out: Log p
Kindly apply the following: y if chromatographic logP is less than 2, n in every other case.

*Q* Regarding `Cc1cc(C(=NOCc2csc(NC(=O)OC(C)(C)C)n2)c2nnnn2C)ccc1F` , kindly confirm whether its chromatographic logP is beneath 2.
*A* n

*Q* Regarding `Cc1ccc(C(=NOCc2csc(N)n2)c2nnnn2C)cc1C(F)(F)F` , kindly confirm whether its chromatographic logP is beneath 2.
*A* n

*Q* Regarding `Cn1nnnc1C(=NOCc1cccc(N)n1)c1cccc(C(F)(F)F)c1F` , kindly confirm whether its chromatographic logP is beneath 2.
*A* y

*Q* Regarding `Cc1cc(C(=NOCc2csc(NCC3CC3)n2)c2nnnn2C)ccc1F` , kindly confirm whether its chromatographic logP is beneath 2.
*A* n

*Q* Regarding `Cc1cc(C(=NOCc2csc(Br)n2)c2nnnn2C)ccc1F` , kindly confirm whether its chromatographic logP is beneath 2.
*A* n

*Q* Regarding `CCCC#Cc1nc(CON=C(c2ccc(F)c(C)c2)c2nnnn2C)cs1` , kindly confirm whether its chromatographic logP is beneath 2.
*A* n

====

- test: Measurement of logP values by HPLC on reversed phase columns (EEC directive 79/831 Annex V.A8)
- Assay type: physicochemical
- condition-parameters: pH 2.7, 0.1% formic acid in water / acetonitrile gradient 10% to 95%
measured-endpoint: logp
I only need the number, thanks.

*Q* Fill in: logp of `CCCCC(=O)Nc1ccnc(CON=C(c2ccc(C)c(C(F)(F)F)c2)c2nnnn2C)n1` is ___
*A* 3.94

*Q* Fill in: logp of `CC(C)CC(=O)Nc1cccc(CON=C(c2ccc(F)c(C(F)(F)F)c2)c2nnnn2C)n1` is ___
*A* 3.94

*Q* Fill in: logp of CCCCCC(=O)Nc1cccc(CON=C(c2cc(C)ccc2F)c2nnnn2C)n1 [Example 100] is ___
*A* 3.92

====

Give logp for every item shown.
- test: Measurement of logP values by HPLC on reversed phase columns (EEC directive 79/831 Annex V.A8)
- Format: physicochemical
- condition-parameters: pH 2.7, 0.1% formic acid in water / acetonitrile gradient 10% to 95%
I only need the number, thanks.

*Q* Fill in: logp of CC(C)CC(=O)Nc1cccc(CON=C(c2cc(F)cc(C(F)(F)F)c2)c2nnnn2C)n1 [Example 65] is ___
*A* 3.89

*Q* Fill in: logp of Cc1ccc(C(F)(F)F)cc1C(=NOCc1cccc(NC(=O)CC(C)C)n1)c1nnnn1C [Example 64] is ___
*A* 3.94

*Q* Fill in: logp of CCCCCC(=O)Nc1cccc(CON=C(c2cccc(F)c2C)c2nnnn2C)n1 [Example 112] is ___
*A* 3.96

*Q* Fill in: logp of CCCCCC(=O)Nc1cccc(CON=C(c2ccc(F)c(C)c2)c2nnnn2C)n1 [Example 119] is ___
*A* 4.11

*Q* Fill in: logp of CCCCCC(=O)Nc1cccc(CON=C(c2ccc(C)cc2F)c2nnnn2C)n1 [Example 115] is ___
*A* 3.92

Each recorded value in this set is attributed to patent US20100286173A1.
